MEASUREMENT_TARGET: human MC4R (Homo sapiens, UniProt P32245)
Sequence (P32245 whole entry): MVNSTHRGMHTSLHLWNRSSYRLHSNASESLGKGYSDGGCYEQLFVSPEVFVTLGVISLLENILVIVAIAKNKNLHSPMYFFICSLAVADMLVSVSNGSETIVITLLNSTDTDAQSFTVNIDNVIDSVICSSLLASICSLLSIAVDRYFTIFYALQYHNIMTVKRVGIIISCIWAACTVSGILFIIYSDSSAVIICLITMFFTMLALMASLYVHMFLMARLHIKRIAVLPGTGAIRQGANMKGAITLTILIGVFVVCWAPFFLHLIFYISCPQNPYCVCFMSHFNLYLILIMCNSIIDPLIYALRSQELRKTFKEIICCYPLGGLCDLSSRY
TEST_SUMMARY: Intracellular cAMP levels in live cells, MC3R selectivity relative to MC4R
Assay type: cell-based
PARTICULARS: cAMP assays in human MC3R and human MC4R stable cell lines
Non-standard residues stand in square brackets, D forms with d. Residues, ends and D or L forms follow the SMILES beside them. Phe(4-I) = N[C@@H](Cc1ccc(I)cc1)C(=O)O; dNle = CCCC[C@@H](N)C(=O)O; Nle = CCCC[C@H](N)C(=O)O; dAbu = CC[C@@H](N)C(=O)O; Aib = CC(C)(N)C(=O)O
OUTCOME_MEASURE: MC3R selectivity (relative to MC4R)
# output: bare number, no unit

>>> test_result("CCCC[C@H](NC(C)=O)C(=O)N[C@H](C)C(=O)N[C@@H](Cc1c[nH]cn1)C(=O)N[C@@H](Cc1ccc(I)cc1)C(=O)N[C@H](CCCNC(=N)N)C(=O)N[C@@H](Cc1c[nH]c2ccccc12)C(=O)N[C@@H](CC(=O)O)C(=O)N[C@@H](CCCNC(=N)N)C(=O)N[C@@H](Cc1ccccc1)C(=O)NCC(=O)O [CTX-1501] (Ac-[Nle][dA]H[Phe(4-I)][dR]WDRFG-OH)")
0.01
>>> test_result("CCCC[C@H](NC(C)=O)C(=O)N[C@H](C)C(=O)N[C@@H](Cc1c[nH]cn1)C(=O)N[C@@H](Cc1ccc(I)cc1)C(=O)N[C@@H](CCCNC(=N)N)C(=O)N[C@H](Cc1c[nH]c2ccccc12)C(=O)N[C@@H](CC(=O)O)C(=O)N[C@@H](CCCNC(=N)N)C(=O)N[C@@H](Cc1ccccc1)C(=O)NCC(=O)O [CTX-1167] (Ac-[Nle][dA]H[Phe(4-I)]R[dW]DRFG-OH)")
937
>>> test_result("CCCC[C@H](NC(C)=O)C(=O)N[C@H](CCCC)C(=O)N[C@@H](Cc1c[nH]cn1)C(=O)N[C@@H](Cc1ccccc1)C(=O)N[C@@H](CCCNC(=N)N)C(=O)N[C@H](Cc1c[nH]c2ccccc12)C(=O)N[C@@H](CC(=O)O)C(=O)N[C@@H](CCCNC(=N)N)C(=O)N[C@@H](Cc1ccccc1)C(=O)NCC(=O)O [CTX-1182] (Ac-[Nle][dNle]HFR[dW]DRFG-OH)")
1406
>>> test_result("CCCC[C@H](NC(C)=O)C(=O)NC(C)(C)C(=O)N[C@@H](Cc1c[nH]cn1)C(=O)N[C@@H](Cc1ccc(I)cc1)C(=O)N[C@@H](CCCNC(=N)N)C(=O)N[C@H](Cc1c[nH]c2ccccc12)C(=O)NCC(N)=O [CTX-1545, Nle-Aib-His-Phe(4-I)-Arg-D-Trp-Gly] (Ac-[Nle][Aib]H[Phe(4-I)]R[dW]G-NH2)")
14

What does the data say about its MC3R selectivity (relative to MC4R)? Entry: CCCC[C@H](NC(=O)[C@@H](NC(=O)[C@@H](N)Cc1ccc(O)cc1)C(C)C)C(=O)N[C@H](CC)C(=O)N[C@@H](Cc1c[nH]cn1)C(=O)N[C@@H](Cc1ccccc1)C(=O)N[C@@H](CCCNC(=N)N)C(=O)N[C@H](Cc1c[nH]c2ccccc12)C(=O)N[C@@H](CC(=O)O)C(=O)N[C@@H](CCCNC(=N)N)C(=O)N[C@@H](Cc1ccccc1)C(=O)NCC(=O)O [CTX-1135] (H-YV[Nle][dAbu]HFR[dW]DRFG-OH) 667
